Tested on: HIV-2 (ROD)
Assay: Inhibition of HIV-2 syncytium formation in CEM cells
Assay type: cell-based
Details: CEM cells, syncytium formation, day four post infection
Answer each item with its documented EC50 (ug/ml) HIV-2.

Give the measured EC50 (ug/ml) HIV-2 of O=S(=O)(Cc1ccc(F)cc1)c1cccc[n+]1[O-] .
7.0 µg/mL

Parameter requested: EC50 (ug/ml) HIV-2. Apply to each item below.
1. O=S(=O)(Cc1cccc(F)c1)c1cccc[n+]1[O-]
2. CC(C)c1ccc(CS(=O)(=O)c2cccc[n+]2[O-])cc1
3. COc1ccc(C[S+]([O-])c2cccc[n+]2[O-])cc1OC (centres unmarked)
4. [O-][n+]1ccccc1SCc1ccccc1

1: 7.5 µg/mL; 2: 2.6 µg/mL; 3: >0.8 µg/mL; 4: >100 µg/mL

----------
So I've got a bunch of compounds here, and I need their HIV-2 % Protection values.
System: HIV-2 (ROD)
Experiment: Inhibition of HIV-2 syncytium formation in CEM cells
Format: cell-based
Details: protection of CEM cells against virus-induced cytopathicity at the concentration in the previous column
One number for each entry, in %.

Tell me reported HIV-2 % Protection for COc1ccc(CS(=O)(=O)c2cc(C(C)(C)C)cc[n+]2[O-])cc1 , tested with HIV-2 (ROD).
0.0

HIV-2 (ROD) / HIV-2 % Protection / CCC(c1cc(C)ccc1C)S(=O)(=O)c1c(C)ccc[n+]1[O-] (stereo not drawn) : value?
37.5

Short answer please: HIV-2 % Protection, HIV-2 (ROD), entry Cc1ccc(C)c(C(C)S(=O)(=O)c2cc(C)cc(C)[n+]2[O-])c1 (stereo not drawn)
0.0

HIV-2 % Protection of O=[N+]([O-])c1ccc(CS(=O)(=O)c2cccc[n+]2[O-])cc1 on HIV-2 (ROD)?
25.0

Hello, I am looking for reported HIV-2 % Protection with HIV-2 (ROD) for O=S(=O)(Cc1cccs1)c1cccc[n+]1[O-] . Could you help?
0.0

Batch lookup, HIV-2 % Protection per entry.
1. Cc1ccc(C[S+]([O-])c2cccc[n+]2[O-])cc1 (stereo not drawn)
2. CC(C)c1ccc(C(C)C)c(CS(=O)(=O)c2cccc[n+]2[O-])c1
3. CCCCCCCC(c1cc(C)ccc1C)S(=O)(=O)c1cccc[n+]1[O-] (stereo not drawn)

0.0
37.5
0.0

For each of the items listed, what is its HIV-2 % Protection?
1. COc1ccc(C[S+]([O-])c2cccc[n+]2[O-])cc1 (stereo not drawn)
2. Cc1ccc(C)c(CS(=O)(=O)c2cccc(C)[n+]2[O-])c1
3. Cc1ccccc1CS(=O)(=O)c1c(C)ccc[n+]1[O-]

0.0
0.0
37.5

State the recorded HIV-2 % Protection for every item in the following list.
1. COc1ccc(C)cc1CSc1cccc[n+]1[O-]
2. Cc1ccc(C)c(C[S+]([O-])c2cccc[n+]2[O-])c1 (stereo not drawn)
3. Cc1ccc(C)c(CSc2c(C)ccc[n+]2[O-])c1
4. Cc1ccc(C)c(C[S+]([O-])c2c(C)ccc[n+]2[O-])c1 (stereo not drawn)

37.5
37.5
0.0
37.5

Please state HIV-2 % Protection for every compound in the list that follows.
1. N#CC(=Cc1ccccc1)Sc1cccc[n+]1[O-]
2. COc1ccc(C[S+]([O-])c2cccc[n+]2[O-])cc1OC (stereo not drawn)
3. Cc1ccc(C)c(CSc2c(Cl)ccc[n+]2[O-])c1

1: 0.0; 2: 0.0; 3: 0.0
